- Experimental Target: ATP-dependent translocase ABCB1 (Homo sapiens)
- Sequence (P08183 whole entry): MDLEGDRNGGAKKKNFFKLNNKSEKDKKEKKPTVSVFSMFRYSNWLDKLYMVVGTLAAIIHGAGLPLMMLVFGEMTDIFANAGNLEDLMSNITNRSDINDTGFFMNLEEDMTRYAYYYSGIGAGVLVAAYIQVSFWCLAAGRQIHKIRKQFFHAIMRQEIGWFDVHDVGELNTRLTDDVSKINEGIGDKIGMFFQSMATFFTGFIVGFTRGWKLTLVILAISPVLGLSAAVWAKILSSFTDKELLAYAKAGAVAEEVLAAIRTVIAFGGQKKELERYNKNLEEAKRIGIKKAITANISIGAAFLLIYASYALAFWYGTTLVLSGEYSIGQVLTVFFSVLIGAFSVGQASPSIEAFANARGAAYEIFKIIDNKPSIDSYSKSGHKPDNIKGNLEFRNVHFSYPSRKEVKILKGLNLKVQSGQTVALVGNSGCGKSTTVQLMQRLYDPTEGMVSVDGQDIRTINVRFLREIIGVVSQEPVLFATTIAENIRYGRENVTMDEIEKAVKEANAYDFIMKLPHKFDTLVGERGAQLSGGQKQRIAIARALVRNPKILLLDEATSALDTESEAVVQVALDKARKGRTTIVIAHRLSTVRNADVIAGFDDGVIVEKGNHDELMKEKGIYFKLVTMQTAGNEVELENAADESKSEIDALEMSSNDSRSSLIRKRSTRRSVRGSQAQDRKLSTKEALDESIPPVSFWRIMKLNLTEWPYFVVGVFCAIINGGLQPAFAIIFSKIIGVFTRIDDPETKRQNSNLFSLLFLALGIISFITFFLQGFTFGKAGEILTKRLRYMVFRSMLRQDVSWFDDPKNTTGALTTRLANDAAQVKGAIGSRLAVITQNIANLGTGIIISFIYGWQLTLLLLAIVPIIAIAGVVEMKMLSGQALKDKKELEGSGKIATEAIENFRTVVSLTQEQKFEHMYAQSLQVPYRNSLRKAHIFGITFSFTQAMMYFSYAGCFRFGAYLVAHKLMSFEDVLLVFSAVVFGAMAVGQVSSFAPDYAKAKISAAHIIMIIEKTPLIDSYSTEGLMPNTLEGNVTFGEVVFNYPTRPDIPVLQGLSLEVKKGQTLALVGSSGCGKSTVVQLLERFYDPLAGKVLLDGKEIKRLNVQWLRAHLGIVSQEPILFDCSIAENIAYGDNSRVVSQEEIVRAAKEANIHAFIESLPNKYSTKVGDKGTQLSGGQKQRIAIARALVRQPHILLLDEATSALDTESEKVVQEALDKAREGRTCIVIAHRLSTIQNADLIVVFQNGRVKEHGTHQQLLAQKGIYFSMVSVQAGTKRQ
- Procedure Text: Inhibition of human Pgp-mediated DNR transport in NIH3T3 cells by microplate assay
- Type: cell-based, Mus musculus
- Details: read-out: Ki
Observable: pKi
Recall that pKi is obtained by taking minus log10 of the concentration measured in molar.

| Smiles String | pKi |
| --- | --- |
| CCCCCCCCCCCC(=O)O[C@@H]1[C@H]2C[C@H](OC(=O)c3ccco3)[C@]3(C)[C@@H](OC(C)=O)[C@@H](OC(=O)c4ccccc4)C[C@@](C)(O)[C@@]13OC2(C)C | 5.29 |
| CC(=O)OC[C@]12[C@@H](OC(=O)c3ccccc3)[C@@H](OC(=O)c3ccccc3)[C@@H]3[C@@H](OC(C)=O)[C@]1(OC3(C)C)[C@H](C)C[C@H](OC(C)=O)[C@@H]2OC(C)=O | 5.77 |
| CC(=O)O[C@@H]1[C@H]2C[C@H](OC(=O)c3ccco3)[C@]3(C)[C@@H](OC(C)=O)[C@@H](OC(=O)c4ccccc4)C[C@@](C)(O)[C@@]13OC2(C)C | 5.53 |

Q: I'd like to know its pKi. The molecule in question is `CC(=O)O[C@H]1[C@@H](O)[C@H](OC(=O)c2ccccc2)[C@@]2(C)[C@@H](OC(=O)/C=C/c3ccccc3)C[C@@H]3C[C@]2(OC3(C)C)[C@@H]1C`
Result: 5.37

Q: I'd like to know its pKi. The molecule in question is `CC(=O)O[C@@H]1[C@H](OC(C)=O)[C@@H](C)[C@@]23C[C@@H](C[C@H](OC(=O)/C=C/c4ccccc4)[C@]2(C)[C@H]1OC(=O)c1ccccc1)C(C)(C)O3`
Result: 5.57
